# assay_info: amyloid nucleation score (Sup35N fusion, yeast selection) (log enrichment); library NNK1; higher = more nucleation; inactive = no reads after selection;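 also: zero at mode of non-aggregating sequences after 7 days selection at 30°C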
property_name: amyloid nucleation score

Worked examples, 5 substances total:
[
  {
    "substance": "FSCSVDLKSSHMEVARNGYP",
    "observed": "inactive"
  },
  {
    "substance": "DVYVSCGYVSQMGPHAEWDG",
    "observed": 0.102
  },
  {
    "substance": "WSLQKRG",
    "observed": "inactive"
  },
  {
    "substance": "GRMAMWYGTPKGGCCHKSLY",
    "observed": "inactive"
  },
  {
    "substance": "QKLCCLSNVVLNTGP",
    "observed": "inactive"
  }
]

The record that follows has no amyloid nucleation score shown yet.
Item WVQNHKRQAPRDVLLSSYPD : provide amyloid nucleation score inactive

----------
# assay_info: amyloid nucleation score (Sup35N fusion, yeast selection) (log enrichment); library NNK2; higher = more nucleation; inactive = no reads after selection
property_name: amyloid nucleation score

Worked examples, 4 sequences total:
[
  {
    "monomer_sequence": "ERLRSLKDNIMNFCKSRLGL",
    "observed": "inactive"
  },
  {
    "monomer_sequence": "WVGAVKFFRSVKRQMSIYLE",
    "observed": "inactive"
  },
  {
    "monomer_sequence": "WDNDQHIQRNLY",
    "observed": "inactive"
  },
  {
    "monomer_sequence": "RITDYRCLTMNKGQSARNQG",
    "observed": "inactive"
  }
]

The record that follows has no amyloid nucleation score shown yet.
Item NSRYPDRGILKLVV : provide amyloid nucleation score 0.409

----------
# assay_info: amyloid nucleation score (Sup35N fusion, yeast selection) (log enrichment); library NNK3; higher = more nucleation; inactive = no reads after selection
property_name: amyloid nucleation score

Worked examples, 5 substances total:
[
  {
    "substance": "YVQSLNR",
    "amyloid nucleation score": "inactive"
  },
  {
    "substance": "EYDSYSKIYWHISLAVFILI",
    "amyloid nucleation score": "inactive"
  },
  {
    "substance": "ESVCYLFCYSHYLGNYGYGS",
    "amyloid nucleation score": "inactive"
  },
  {
    "substance": "SIYCTLRVVGT",
    "amyloid nucleation score": "inactive"
  },
  {
    "substance": "FMRGTVLKTRNYRFRQAHEE",
    "amyloid nucleation score": "inactive"
  }
]

Item LNFCFHYCI : provide amyloid nucleation score 1.54

Item RLVRIW : provide amyloid nucleation score inactive

Item SSMSRVCEIKVLYNMSGVYT : provide amyloid nucleation score inactive

Item TYTVYLRRYAYYECTFRQFL : provide amyloid nucleation score inactive

Item TIESNCVDDLSIGGAGPNLR : provide amyloid nucleation score inactive

Item LQSYRDLQTRFFLFSAHTSL : provide amyloid nucleation score inactive

Item LLYSLWQSHLMLTGCNM : provide amyloid nucleation score inactive

Item IPFFIGCHNKCRVYLWVAVG : provide amyloid nucleation score inactive

Item KEDLTSLVTLEKEALLVSDE : provide amyloid nucleation score inactive

Item ADSMTTGLVHGWCYFCMWFN : provide amyloid nucleation score 2.16

Item SGSNILMEWNCYRARLCRGS : provide amyloid nucleation score inactive

Item VSLMMCVVPFMPVLQHMSNA : provide amyloid nucleation score 0.793

Item APVKLAGLHTSVRARGIGYW : provide amyloid nucleation score -0.192

Item RLCHRWFLDRLTICY : provide amyloid nucleation score inactive

Item SMDMRWAFICLILTITSMGR : provide amyloid nucleation score inactive

Item CCFYRSSWVFKLGEGRVIIP : provide amyloid nucleation score 0.319

----------
# assay_info: amyloid nucleation score (Sup35N fusion, yeast selection) (log enrichment); library NNK3; higher = more nucleation; inactive = no reads after selection
property_name: amyloid nucleation score

Worked examples, 8 sequences total:
[
  {
    "monomer_sequence": "LMLEISIHLLLYRVSISGYF",
    "observed": "inactive"
  },
  {
    "monomer_sequence": "WTYIWCAN",
    "observed": 1.75
  },
  {
    "monomer_sequence": "FWTGVACNTAGCCLGYESLR",
    "observed": "inactive"
  },
  {
    "monomer_sequence": "SRPLHFVYVIWGCPDQSDRN",
    "observed": "inactive"
  },
  {
    "monomer_sequence": "LFDLRDNVCSRVSRNYTAGA",
    "observed": "inactive"
  },
  {
    "monomer_sequence": "LFMSPVKSAWRIVCGNKFSQ",
    "observed": -0.642
  },
  {
    "monomer_sequence": "TFNYYACTPIKFVWYLGTCP",
    "observed": 2.54
  },
  {
    "monomer_sequence": "TVSICSGVSRVWKHLHYMMV",
    "observed": "inactive"
  }
]

Item EKGIGYKLCMGQYAGS : provide amyloid nucleation score inactive

Item SDGHFLCV : provide amyloid nucleation score inactive

Item LDMSFSGYTRVLARSISTDA : provide amyloid nucleation score 0.474

Item HTILENFSSLVVMRDGRRNG : provide amyloid nucleation score -0.275

Item CCRLDDIRQ : provide amyloid nucleation score inactive

Item AKSMVWNGGVWYLFQEYARG : provide amyloid nucleation score inactive

Item KVMTDIPDV : provide amyloid nucleation score inactive

Item THGNMCYEWIPKVPTIISVG : provide amyloid nucleation score inactive

----------
# assay_info: amyloid nucleation score (Sup35N fusion, yeast selection) (log enrichment); library NNK1; higher = more nucleation; inactive = no reads after selection
property_name: amyloid nucleation score

[
  {
    "monomer_sequence": "SIKFIRTYWWITNSVDKFV",
    "property_name": "amyloid nucleation score",
    "observed": "inactive"
  },
  {
    "monomer_sequence": "SVWVVCFVSRNVLVMFNSNF",
    "property_name": "amyloid nucleation score",
    "observed": "inactive"
  },
  {
    "monomer_sequence": "LGALIYNSAFN",
    "property_name": "amyloid nucleation score",
    "observed": "inactive"
  }
]

----------
# assay_info: amyloid nucleation score (Sup35N fusion, yeast selection) (log enrichment); library NNK3; higher = more nucleation; inactive = no reads after selection
property_name: amyloid nucleation score
I only need the number, thanks.

[
  {
    "substance": "LFSLIVNTRLETLEFKGQIP",
    "amyloid nucleation score": 1.02
  },
  {
    "substance": "VCSHGFCACCRNNKDETWCD",
    "amyloid nucleation score": -0.331
  },
  {
    "substance": "WDNITRNWRSCPHQMSLRYL",
    "amyloid nucleation score": -0.148
  }
]

The record that follows has no amyloid nucleation score shown yet.
Item VSNMCVGMKLCFSDNHYREL : provide amyloid nucleation score 1.78

----------
# assay_info: amyloid nucleation score (Sup35N fusion, yeast selection) (log enrichment); library NNK1; higher = more nucleation; inactive = no reads after selection
# Lookup of reported amyloid nucleation score keyed by entry
I only need the number, thanks.

Worked examples, 5 substances total:
[
  {
    "substance": "VETIRQINVHVSGVDIHFWD",
    "observed": 6.87
  },
  {
    "substance": "RTKLVEHSMFCNGGEKRHTP",
    "observed": 0.574
  },
  {
    "substance": "INIVVMGMAGRRQGVPVACV",
    "observed": 1.59
  },
  {
    "substance": "RCASALVSGVTSVSLRTVQD",
    "observed": 0.83
  },
  {
    "substance": "CCDDIRTQDLALRAQIP",
    "observed": -0.21
  }
]

Item VSPIMFAYSMSCMSFYGEHG : provide amyloid nucleation score 5.04

Item NWNVGTQTKHVDNFLHKVIN : provide amyloid nucleation score -0.315

----------
# assay_info: amyloid nucleation score (Sup35N fusion, yeast selection) (log enrichment); library NNK3; higher = more nucleation; inactive = no reads after selection
property_name: amyloid nucleation score

[
  {
    "substance": "TGYWRIFSCSCLIVCVRLSV",
    "amyloid nucleation score": "inactive"
  },
  {
    "substance": "CMLCKPWSSQVNSY",
    "amyloid nucleation score": "inactive"
  },
  {
    "substance": "MKTSNYMVRQCAGIPASTNR",
    "amyloid nucleation score": "inactive"
  },
  {
    "substance": "QHWWSYWMFSGKRQCVVFPV",
    "amyloid nucleation score": "inactive"
  },
  {
    "substance": "YQICGCSCLSYLPFLTSSIF",
    "amyloid nucleation score": "inactive"
  }
]

Item KKISAQESEFVGSPFEYGGG : provide amyloid nucleation score inactive

Item VKDYNYKFWALPSVPREWVF : provide amyloid nucleation score inactive

Item TLWAEYTNLSEKEIDDYIDL : provide amyloid nucleation score inactive

Item SPRSFIILVGNGYISCSSVE : provide amyloid nucleation score 2.56

Item LREMGLHYWGD : provide amyloid nucleation score inactive

Item SYCDVFTGNNLHLVVSFFYS : provide amyloid nucleation score 2.7

Item NTGYVVLHKDFHSLASSTKV : provide amyloid nucleation score inactive

Item SVERVLLRTVASVGGDVDVN : provide amyloid nucleation score inactive
